Test system: IDH1wt cells
assay.method.text: Alamar blue cell viability assay, IDH1wt cells
Format: cell-based
conditions: IDH1wt cells in vitro, treated for 72 hours

smiles.text | test.target | IC50 (µM)
CN1CCN(C)[C@H](CCN2CC[C@H](c3ccc(F)cc3)C2)C1 | IDH1wt cells | 12

====

Tested on: IDH1mut cancer cells
assay.method.text: Alamar blue cell viability assay, IDH1mut cells
Assay type: cell-based
conditions: IDH1mut cancer cells in vitro, treated for 72 hours

smiles.text | IC50, nM
CN1CCN(C)[C@H](CCN2CC[C@H](c3ccc(F)cc3)C2)C1 | 1000
